Biological target: NMDA receptor complex ([3H]TCP binding) (Rattus norvegicus)
Construct: Triton X-100 washed synaptic plasma membranes (SPM) prepared from rat forebrain
Assay: Assay B: TCP Modulation Assay (stimulation of [3H]TCP binding to synaptic plasma membranes)
Conditions: basal conditions
measured.quantity: pKd
Conceptually, pKd converts a concentration in mol/L into minus its log10.

Task: Observed pKd on NMDA receptor complex ([3H]TCP binding) (Rattus norvegicus) for c1csc(C2(N3CCCCC3)CCCCC2)c1 [[3H]TCP] , please.
Result: 7.36
